Data provenance: PubChem BioAssay AID2060488

system: 966289-007-R4-J1-PDC complex spheroid viability; experiment: Anticancer human tumor 966289-007-R4-J1-PDC patient-derived pancreatic adenocarcinoma cell line growth inhibition [GQUAD]; details: second compound 3.16 µM; first compound 0.316 µM; active compounds read low;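 further: spheroids exposed to the agents for seven days before readout; percent viability relative to DMSO vehicle control wells taken as 100%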
Measured endpoint: viability, T/C (%)
Form entry: value (%) — number only.

For the compound shown here, CC[C@@]1(O)C(=O)OCc2c1cc1n(c2=O)Cc2cc3c(CN(C)C)c(O)ccc3nc2-1 + Cc1cnc(CNC(=O)c2c(=O)c3ccc(N4CCCN(C)CC4)nc3n3c2sc2ccccc23)cn1 , give the reported viability, T/C.
0.07

Reported viability, T/C, compound COc1cccc2c1C(=O)c1c(O)c3c(c(O)c1C2=O)CC(O)(C(=O)CO)CC3OC1CC(N)C(O)C(C)O1 (stereo not given) + Cc1[nH]c2ccc(F)cc2c1-c1nc2c3cccnc3c3ncccc3c2[nH]1 : ____
2.39

Find the recorded viability, T/C belonging to CC1COCCN1c1cc(C2(S(C)(=N)=O)CC2)nc(-c2ccnc3[nH]ccc23)n1 (stereo not given) + CN(C)c1ccc(Nc2c3ccc(NC(=O)CCN4CCCC4)cc3nc3cc(NC(=O)CCN4CCCC4)ccc23)cc1 and report it.
106

Look up viability, T/C: CCc1c2c(nc3ccc(O)cc13)-c1cc3c(c(=O)n1C2)COC(=O)[C@]3(O)CC + Cc1[nH]c2ccc(F)cc2c1-c1nc2c3cccnc3c3ncccc3c2[nH]1
0.4

What value of measured viability, T/C is listed for CC1COCCN1c1cc(-c2ccnn2C)c2ccnc(-c3ccn[nH]3)c2n1 (stereo not given) + Cc1cnc(CNC(=O)c2c(=O)c3ccc(N4CCCN(C)CC4)nc3n3c2sc2ccccc23)cn1 ?
4.85
